Values compiled from the supplement of paper PMC10567573.

Each entry below carries its reported protein stability index.
B1: CDC25A (parent)
chain: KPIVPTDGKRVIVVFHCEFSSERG

variants of: B1; assay: protein stability index of a GFP-peptide fusion (GPS, HEK-293T) (PSI 1-6); higher = more stable; settings: c terminus: a fixed tail appended;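 further: lentivirally expressed fusions sorted by FACS into six bins by GFP to DsRed ratio, PSI derived from sequencing read proportions per bin multiplied by bin number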
Reported metric: protein stability index

# Variant key, Reported metric, Experimental value
records = [
    ("G24A", "protein stability index", 1.29),
    ("G8L", "protein stability index", 3.42),
    ("E22P", "protein stability index", 2.64),
    ("G8F", "protein stability index", 2.28),
    ("G8C", "protein stability index", 1.88),
    ("E22G", "protein stability index", 1.99),
    ("S20K", "protein stability index", 2.76),
    ("V13H", "protein stability index", 2.08),
    ("I12V", "protein stability index", 1.63),
    ("V14R", "protein stability index", 2.09),
    ("P5E", "protein stability index", 2.33),
    ("E18S", "protein stability index", 3.26),
    ("T6G", "protein stability index", 1.97),
    ("G8I", "protein stability index", 2.89),
    ("V14N", "protein stability index", 2.35),
    ("K9F", "protein stability index", 2.2),
    ("V11F", "protein stability index", 2.11),
    ("E22K", "protein stability index", 1.99),
    ("R23D", "protein stability index", 2.52),
    ("P5H", "protein stability index", 1.5),
    ("K1T", "protein stability index", 1.98),
    ("P5M", "protein stability index", 2.45),
]
